selectivity ratio reference
test_protocol: Selectivity index, ratio of IC50 for HEK293 cells to IC50 for Trypanosoma brucei brucei 427 bloodstream form
Type: toxicity, cell-based
cond: human, read-out: Ratio IC50
Answer field: number only, no words.

Consider the worked cases shown below.
# chem_smiles, reading
measured = [
    ("O=C(Nc1ccc(F)c(-c2nc3ncccc3o2)c1)c1cnco1", 43),
    ("O=C(Nc1cccc(-c2nc3ncccc3o2)c1)c1cscn1", 63),
    ("O=C(Nc1ccc(Cl)c(-c2nc3ncccc3o2)c1)c1cscn1", 39),
    ("Cc1ccc(NC(=O)c2occc2C)cc1-c1nc2ncccc2o1", 145),
    ("COc1ccc(-c2cnc3nc(-c4cccc(NC(=O)c5ccco5)c4)oc3c2)cc1", 130),
]

Consider the additional molecule presented here.
Inquiry: Give the reported selectivity ratio for this molecule. `O=C(Nc1cccc(-c2nc3ncccc3[nH]2)c1)c1ccoc1`
Reply text: 39
